assay: Chemical stability in 50 mM borate buffer at pH 9.0 at 37 degC assessed as half life by HPLC; assay type: physicochemical
test-readout: half-life
Respond with the figure and its unit, in that order.

Query: GET /values?readout=half-life&item= CN(C)C(=N)/N=C(\N)NSc1ccccc1
Response: 18.1 min

----------
test: Octanol-water distribution coefficient, log D at pH 7.4 by HPLC; type: physicochemical
test-readout: logD
Form rule: numeric answer, no unit written next to it.

{"structure-notation": "CN(C)C(=N)/N=C(\\N)NSc1ccccc1", "logD": -0.76}

Turning to the following compound.
Query: GET /values?readout=logD&item= CN(C)C(=N)/N=C(\N)NSC1CCCCC1
Response: 0.49

----------
compounds and their reported half-life
experiment: Chemical stability in 50 mM HCl buffer at pH 1.0 at 37 degC assessed as half life by HPLC; format: physicochemical
State just the number; it will be interpreted in h.

{"structure-notation": "CN(C)C(=N)/N=C(\\N)NSc1ccccc1", "half-life (h)": 0.202}

Query: GET /values?readout=half-life&item= CN(C)C(=N)/N=C(\N)NSC1CCCCC1
Response: 7.96

----------
assay: Chemical stability in 50 mM phosphate buffer at pH 7.4 at 37 degC assessed as compound degradation to metformin after 4 weeks by HPLC; type: physicochemical; settings: read-out: Activity
test-readout: degraded at 672 h (%)
State just the number; it will be interpreted in %.

Query: GET /values?readout=degraded at 672 h&item= CN(C)C(=N)/N=C(\N)NSC1CCCCC1
Response: 10

----------
assay: in vivo; settings: Wistar, rat, plasma, po, 140 mg/kg
Description: Cmax in Wistar rat plasma at 140 mg/kg, po
test-readout: Cmax (ng/mL)
State just the number; it will be interpreted in ng/mL.

Query: GET /values?readout=Cmax&item= CN(C)C(=N)N=C(N)N
Response: 1700

----------
assay: Chemical stability in 50 mM phosphate buffer at pH 7.4 at 37 degC assessed as half life by HPLC; assay type: physicochemical
test-readout: half-life (h)
State just the number; it will be interpreted in h.

Query: GET /values?readout=half-life&item= CN(C)C(=N)/N=C(\N)NSc1ccccc1
Response: 78.6

----------
test: Chemical stability in 50 mM acetate buffer at pH 4.0 at 37 degC assessed as half life by HPLC; format: physicochemical
test-readout: half-life (h)
State just the number; it will be interpreted in h.

Query: GET /values?readout=half-life&item= CN(C)C(=N)/N=C(\N)NSc1ccccc1
Response: 78.6

----------
assay: Metabolic stability in 20% rat liver homogenate assessed as compound degradation to metformin after 24 hrs by HPLC; assay type: ADME, tissue-based; conditions: 20% liver homogenate, read-out: Activity
test-readout: metabolised at 24 h (%)
State just the number; it will be interpreted in %.

Query: GET /values?readout=metabolised at 24 h&item= CN(C)C(=N)/N=C(\N)NSC1CCCCC1
Response: 10

----------
assay: Metabolic stability in 20% rat liver homogenate assessed as half life by HPLC; format: ADME, tissue-based; settings: 20% liver homogenate
test-readout: half-life (s)
State just the number; it will be interpreted in s.

Query: GET /values?readout=half-life&item= CN(C)C(=N)/N=C(\N)NSc1ccccc1
Response: 15

----------
test: Tmax in Wistar rat plasma at 35 mg/kg, iv; type: ADME, organism-based; set-up: dose 35 mg/kg, route intravenous
test-readout: Tmax (min)
State just the number; it will be interpreted in min.

Query: GET /values?readout=Tmax&item= CN(C)C(=N)N=C(N)N
Response: 1

----------
test: Octanol-water distribution coefficient, log D at pH 4 by HPLC; format: physicochemical
test-readout: logD
Form rule: numeric answer, no unit written next to it.

{"structure-notation": "CN(C)C(=N)/N=C(\\N)NSc1ccccc1", "test-readout": "logD", "numeric-readout": -0.7}

Turning to the following compound.
Query: GET /values?readout=logD&item= CN(C)C(=N)/N=C(\N)NSC1CCCCC1
Response: -1.1

----------
assay: Chemical stability in 50 mM borate buffer at pH 9.0 at 37 degC assessed as compound degradation to metformin after 4 weeks by HPLC; type: physicochemical; conditions: read-out: Activity
test-readout: degraded at 672 h (%)
State just the number; it will be interpreted in %.

Query: GET /values?readout=degraded at 672 h&item= CN(C)C(=N)/N=C(\N)NSC1CCCCC1
Response: 40

----------
experiment: Chemical stability in 15 mM hydrogen peroxide solution at pH 7.4 at 37 degC assessed as half life by HPLC; type: physicochemical
test-readout: half-life (min)
State just the number; it will be interpreted in min.

{"structure-notation": "CN(C)C(=N)/N=C(\\N)NSC1CCCCC1", "readout-unit": "min", "half-life": 35.8}

Query: GET /values?readout=half-life&item= CN(C)C(=N)/N=C(\N)NSc1ccccc1
Response: 14.2

----------
assay: in vivo; conditions: Wistar, rat, plasma, po, 140 mg/kg
Description: AUC (0 to infinity) in Wistar rat plasma at 140 mg/kg, po
test-readout: AUC(0-inf) (µg·h/mL)
State just the number; it will be interpreted in µg·h/mL.

Query: GET /values?readout=AUC(0-inf)&item= CN(C)C(=N)N=C(N)N
Response: 4.82

----------
experiment: Chemical stability in 50 mM acetate buffer at pH 4.0 at 37 degC assessed as compound degradation to metformin after 4 weeks by HPLC; assay type: physicochemical; settings: read-out: Activity
test-readout: degraded at 672 h (%)
State just the number; it will be interpreted in %.

Query: GET /values?readout=degraded at 672 h&item= CN(C)C(=N)/N=C(\N)NSC1CCCCC1
Response: 10

----------
experiment: Metabolic stability in rat serum assessed as half life by HPLC; format: ADME, cell-free
test-readout: half-life (min)
State just the number; it will be interpreted in min.

Query: GET /values?readout=half-life&item= CN(C)C(=N)/N=C(\N)NSc1ccccc1
Response: 36.8

----------
experiment: Cmax in Wistar rat plasma at 35 mg/kg, iv; assay type: ADME, organism-based; set-up: dose 35 mg/kg, route intravenous
test-readout: Cmax (ng/mL)
State just the number; it will be interpreted in ng/mL.

Query: GET /values?readout=Cmax&item= CN(C)C(=N)N=C(N)N
Response: 20900

----------
assay: Metabolic stability in human serum assessed as compound degradation to metformin after 24 hrs by HPLC; type: ADME, cell-free; conditions: read-out: Activity
test-readout: metabolised at 24 h (%)
State just the number; it will be interpreted in %.

Query: GET /values?readout=metabolised at 24 h&item= CN(C)C(=N)/N=C(\N)NSC1CCCCC1
Response: 10
